Attribute: viability, T/C
- Tested on: 192522-019-R-J2-PDC complex tumor spheroid viability;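 further: spheroids exposed to drugs for seven days before reading; 100% = DMSO vehicle control viability in luminescence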
- protocol: Anticancer human tumor 192522-019-R-J2-PDC patient-derived colon adenocarcinoma cell line growth inhibition [POLQ]
- test_conditions: second compound 10 µM; first compound 1 µM; stronger effect = lower value
Field: numeric (%). Do not append units.

Please review the entries below; each comes with its answer.
CCCS(=O)(=O)Nc1ccc(F)c(C(=O)c2c[nH]c3ncc(-c4ccc(Cl)cc4)cc23)c1F + Nc1ccc(C#CCN(C(=O)Cc2ncc(C(F)(F)F)cc2C(F)(F)F)c2ccc(F)cc2)nn1 : 110
CCc1cc2c(N3CCc4c(cc(Cn5ccnc5)cc4-c4cn(C)nc4C(F)(F)F)C3=O)cc(C)nc2c(OC)n1 + Nc1ccc(C#CCN(C(=O)Cc2ncc(C(F)(F)F)cc2C(F)(F)F)c2ccc(F)cc2)nn1 : 83.4

In the following, a different compound is considered.
Q: Read off the recorded viability, T/C for C#Cc1c(F)ccc2cc(O)cc(-c3ncc4c(N5CC6CCC(C5)N6)nc(OCC56CCCN5CC(F)C6)nc4c3F)c12 (stereo not drawn) + Nc1ccc(C#CCN(C(=O)Cc2ncc(C(F)(F)F)cc2C(F)(F)F)c2ccc(F)cc2)nn1
A: 77.2
